- Test System: MAP2K2 (MEK2) (Homo sapiens, UniProt P36507)
- Sequence (P36507 whole entry, species assumed): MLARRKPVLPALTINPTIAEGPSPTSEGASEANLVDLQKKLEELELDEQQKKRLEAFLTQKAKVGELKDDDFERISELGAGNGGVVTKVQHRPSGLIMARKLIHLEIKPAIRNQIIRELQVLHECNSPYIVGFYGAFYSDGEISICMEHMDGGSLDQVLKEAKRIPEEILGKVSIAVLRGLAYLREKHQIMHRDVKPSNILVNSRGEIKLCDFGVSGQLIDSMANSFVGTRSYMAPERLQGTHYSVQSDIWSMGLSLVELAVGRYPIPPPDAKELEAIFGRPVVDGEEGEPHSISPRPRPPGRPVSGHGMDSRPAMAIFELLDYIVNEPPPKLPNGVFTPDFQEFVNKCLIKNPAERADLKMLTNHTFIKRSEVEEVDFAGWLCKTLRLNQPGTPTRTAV
Readout Type: IC50 (µM)
Could you give me the number in µM? Just the number is fine.

For C#CCOc1ccc(Nc2ncc(Cl)c(Nc3ccccc3NC(=O)C=C)n2)c(OC)c1 [Compound 6] , what is its reported IC50?
0.251

* * *

- Test System: FER^WT (Homo sapiens)
- Sequence (P16591 448-820): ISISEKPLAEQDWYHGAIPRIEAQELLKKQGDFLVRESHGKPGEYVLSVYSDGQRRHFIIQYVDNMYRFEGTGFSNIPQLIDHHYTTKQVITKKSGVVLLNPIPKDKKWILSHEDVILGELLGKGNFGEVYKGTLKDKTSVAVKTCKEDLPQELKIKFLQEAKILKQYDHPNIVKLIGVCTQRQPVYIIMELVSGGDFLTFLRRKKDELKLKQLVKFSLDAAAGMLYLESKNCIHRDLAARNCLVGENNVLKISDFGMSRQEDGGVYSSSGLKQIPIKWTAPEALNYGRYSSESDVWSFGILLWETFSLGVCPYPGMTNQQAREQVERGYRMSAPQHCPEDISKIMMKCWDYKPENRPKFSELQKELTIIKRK
- Assay Info: In vitro TR-FRET kinase assay
- Condition Details: log[inhibitor] (M) -5
// Residual activity (%) WT Mean lookup, one value per entry
Could you give me the number in %? Just the number is fine.

Completed entries (count: 3):
{"Test Smiles": "CCC(=O)Nc1ccccc1Nc1nc(Nc2ccccc2OC)ncc1Cl", "Test System": "FER^WT (Homo sapiens)", "Value Observed": 15.6173}
{"Test Smiles": "C=CC(=O)Nc1ccccc1Nc1nc(Nc2ccccc2OC)ncc1Cl", "Test System": "FER^WT (Homo sapiens)", "Value Observed": 4.829}
{"Test Smiles": "COc1ccccc1Nc1ncc(Cl)c(Nc2ccccc2S(=O)(=O)C(C)C)n1", "Test System": "FER^WT (Homo sapiens)", "Value Observed": 0.06517}

// switching to the query compound
Residual activity (%) WT Mean of C#CCOc1ccc(Nc2ncc(Cl)c(Nc3ccccc3NC(=O)C=C)n2)c(OC)c1 on FER^WT (Homo sapiens)?
5.2329
